FYI, the data here is from patent US20210300943A1.

- assay.system: recombinant human Meningioma Expressed Antigen 5 (MGEA5), also referred to as O-GlcNAcase (OGA) (Homo sapiens, UniProt O60502)
- Construct: Full length OGA enzyme was purchased at OnGene (cat #TP322411); purchased OnGene (so in the source)
- Sequence (O60502 1-916): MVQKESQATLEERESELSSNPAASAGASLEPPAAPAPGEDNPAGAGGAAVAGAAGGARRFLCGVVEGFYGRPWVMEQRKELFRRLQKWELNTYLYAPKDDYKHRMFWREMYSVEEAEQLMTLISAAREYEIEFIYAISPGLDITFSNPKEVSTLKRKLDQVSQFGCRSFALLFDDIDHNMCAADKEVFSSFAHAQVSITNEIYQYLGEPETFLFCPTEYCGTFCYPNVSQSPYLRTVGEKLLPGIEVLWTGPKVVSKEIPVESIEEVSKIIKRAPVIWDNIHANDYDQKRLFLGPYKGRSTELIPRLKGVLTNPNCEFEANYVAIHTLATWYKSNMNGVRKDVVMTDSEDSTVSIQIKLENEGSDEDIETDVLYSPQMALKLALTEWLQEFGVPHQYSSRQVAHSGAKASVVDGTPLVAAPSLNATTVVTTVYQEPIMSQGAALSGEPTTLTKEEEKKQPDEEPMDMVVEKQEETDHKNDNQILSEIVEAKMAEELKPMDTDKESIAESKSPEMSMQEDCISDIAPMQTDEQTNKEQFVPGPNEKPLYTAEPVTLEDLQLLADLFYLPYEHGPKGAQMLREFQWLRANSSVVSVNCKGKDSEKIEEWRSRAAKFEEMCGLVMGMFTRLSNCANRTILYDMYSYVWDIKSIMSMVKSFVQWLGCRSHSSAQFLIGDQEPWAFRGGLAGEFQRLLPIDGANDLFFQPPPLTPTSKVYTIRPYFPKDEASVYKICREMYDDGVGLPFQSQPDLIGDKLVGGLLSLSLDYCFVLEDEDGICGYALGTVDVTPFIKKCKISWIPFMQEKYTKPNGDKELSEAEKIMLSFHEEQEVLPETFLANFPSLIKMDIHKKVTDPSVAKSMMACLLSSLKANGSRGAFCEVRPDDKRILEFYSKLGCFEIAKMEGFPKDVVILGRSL
- protocol: OGA biochemical assay (inhibition of FM-GlcNAc hydrolysis, fluorescence)
- details: read-out: Enzymatic hOGA, pIC50 (converted)
observed.property: IC50 (nM)

Past entries and their recorded results:
>>> print(df.to_string())
                                   compound  unit_spec   val
0  Cc1cc(C[C@H]2CCCN(Cc3ccc4c(c3)OCCN4C)C2)cc(C)n1 [Product 48]         nM   501
1  Cc1cc(CO[C@@H]2CCCN([C@H](C)c3ccc4c(n3)OCCO4)C2)cc(C)n1 (mixture of isomers) [Product 112]         nM   200
2  Cc1cc(C2CCCN(C(C)c3cc4c(cc3F)NCCO4)C2)cc(C)n1 (stereo not drawn) [Product 190]         nM    10
3  Cc1cc(C[C@H]2CCCN(C(C)c3cnc4c(c3)OCCO4)C2)cc(C)n1 (stereo partly drawn) [Product 130]         nM  7.94
4  Cc1cnc(C)c(C2CCCN(C(C)c3ccc4c(n3)OCCO4)C2)n1 (stereo not drawn) [Product 12]         nM   501

I = Cc1cc([C@H]2CCCN([C@@H](C)c3cc4c(cc3F)OCCO4)C2)cc(C(F)(F)F)n1 (single isomer, unassigned) [Product 144]
II = Cc1cc(C[C@H]2CCCN(C(C)c3cnc4c(c3)OCC4)C2)cc(C)n1 (mixture of isomers) [Product 57]
III = Cc1cc(OC[C@H]2CCCN(C(C)c3ccc4c(n3)OCCO4)C2)nc(C)n1 (single isomer, unassigned) [Product 162]
IV = Cc1cc(CC2(F)CCCN([C@@H](C)c3ccc4c(n3)OCCO4)C2)cc(C)n1 (single isomer, unassigned) [Product 177]
Qu. Put the compounds in ascending order of IC50. Kindly provide the labels arranged according to the requested ordering.
Ans. I, II, III, IV

====

- assay.system: recombinant human Meningioma Expressed Antigen 5 (MGEA5), also referred to as O-GlcNAcase (OGA) (Homo sapiens, UniProt O60502)
- Construct: Full length OGA enzyme was purchased at OnGene (cat #TP322411); purchased OnGene (so in the source)
- Sequence (O60502 1-916): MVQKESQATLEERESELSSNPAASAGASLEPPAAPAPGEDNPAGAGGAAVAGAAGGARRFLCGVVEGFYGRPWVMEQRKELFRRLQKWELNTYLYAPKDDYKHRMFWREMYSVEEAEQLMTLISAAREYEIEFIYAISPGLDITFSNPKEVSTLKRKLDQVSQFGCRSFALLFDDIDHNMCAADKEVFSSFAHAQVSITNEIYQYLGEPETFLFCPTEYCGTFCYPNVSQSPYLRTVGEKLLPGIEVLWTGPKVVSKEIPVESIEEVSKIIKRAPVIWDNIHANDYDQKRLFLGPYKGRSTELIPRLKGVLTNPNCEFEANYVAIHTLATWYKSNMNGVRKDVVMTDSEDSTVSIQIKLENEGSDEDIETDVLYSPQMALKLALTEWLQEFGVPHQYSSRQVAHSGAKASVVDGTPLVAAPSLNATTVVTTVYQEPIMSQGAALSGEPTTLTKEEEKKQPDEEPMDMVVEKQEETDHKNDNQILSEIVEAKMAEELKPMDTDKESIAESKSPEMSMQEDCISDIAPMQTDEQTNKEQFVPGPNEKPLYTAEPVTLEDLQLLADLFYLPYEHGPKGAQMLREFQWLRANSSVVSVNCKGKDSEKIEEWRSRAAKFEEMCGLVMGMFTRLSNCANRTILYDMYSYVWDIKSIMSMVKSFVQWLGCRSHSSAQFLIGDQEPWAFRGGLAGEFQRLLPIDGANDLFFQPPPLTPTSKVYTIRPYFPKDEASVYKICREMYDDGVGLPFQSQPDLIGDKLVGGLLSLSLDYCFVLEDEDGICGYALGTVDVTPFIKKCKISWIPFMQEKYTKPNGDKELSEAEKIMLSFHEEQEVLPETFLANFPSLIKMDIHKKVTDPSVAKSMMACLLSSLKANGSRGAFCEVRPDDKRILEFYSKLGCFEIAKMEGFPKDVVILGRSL
- protocol: OGA biochemical assay (inhibition of FM-GlcNAc hydrolysis, fluorescence)
- details: maximal effect, read-out: Enzymatic Emax (%)
observed.property: Emax (%)

Past entries and their recorded results:
>>> print(df.to_string())
                                   compound  val
0  CC(c1nc2c(cc1F)OCCO2)N1CCC[C@H](NCc2ccc(F)cc2)C1 (stereo partly drawn)   95
1  Cc1cc(C[C@H]2CCCN(C(C)c3ccc4c(n3)OCC(=O)N4C)C2)cc(C)n1 (mixture of isomers)   77
2  Cc1cc(OC[C@H]2CCCN(C(C)c3nc4c(cc3F)CCO4)C2)cc(C)n1 (mixture of isomers) [Product 178]   95
3  Cc1cc(OC[C@H]2CCCN([C@H](C)c3ccc4c(n3)OCCO4)C2)nc(C)n1 (mixture of isomers)  100
4  Cc1cc(OC[C@H]2CCCN([C@@H](C)c3nc4c(cc3F)OCCO4)C2)cc(C)n1  102

I = Cc1cc(C[C@H]2CCCN(C(C)c3ccc4c(n3)OCCO4)C2)cc(C(F)(F)F)n1 (mixture of isomers)
II = Cc1cc(OC[C@@H]2CCCN([C@@H](C)c3ccc4c(n3)OCCO4)C2)cc(C)n1 (relative stereo)
Qu. Of the two listed items, I and II , which carries the larger Emax figure? Record your answer as the label of the chosen record.
Ans. I
(I: 102%, II: 37%)

1 = Cc1cc(OC[C@H]2CCCN([C@H](C)c3nc4c(cc3F)OCCO4)C2)cc(C)n1
2 = Cc1cc(C[C@H]2CCCN(Cc3cnc4c(c3)OCC(=O)N4C)C2)cc(C)n1
Qu. Given the two records 1 and 2 , choose the one whose Emax value is lower. Record your answer as the label of the chosen record.
Ans. 2
(2: 10%, 1: 101%)

====

- assay.system: recombinant human Meningioma Expressed Antigen 5 (MGEA5), also referred to as O-GlcNAcase (OGA) (Homo sapiens)
- Construct: Full length OGA enzyme was purchased at OnGene (cat #TP322411); purchased OnGene (so in the source)
- protocol: OGA biochemical assay (inhibition of FM-GlcNAc hydrolysis, fluorescence)
- details: read-out: Enzymatic hOGA, pIC50 (converted)
observed.property: IC50 (µM)

I = Cc1cc(C[C@H]2CCCN(C(C)c3ccc4c(n3)OCCO4)C2)cc(C)n1 (single isomer, unassigned) [Product 45]
II = Cc1cc(CN[C@H]2CCCN(C(C)c3nc4c(cc3F)OCCO4)C2)cc(C)n1 (stereo partly shown) [Product 193]
III = Cc1cc(C[C@H]2CCCN(C(C)c3ccc4c(c3)OCCN4C)C2)cc(C)n1 (mixture of isomers) [Product 49]
IV = COc1cc(OC2CCCN(C(C)c3ccc4c(n3)OCCO4)C2)cc(C)n1 (stereo not shown) [Product 18]
Qu. Sort the listed compounds above so the one with the largest IC50 comes first and the smallest comes last. Kindly provide the labels arranged according to the requested ordering.
Ans. I, III, IV, II
(I: 0.501 µM, III: 0.126 µM, IV: 0.0501 µM, II: 0.00316 µM)
